# Tested on: Leukemia L-1210
# assay.overview: Effect on the life span of mice implanted with leukemic cells of L-1210 (Method B)
# Type: in vivo, mice (male BDF1)
# test.settings: Mus musculus, L1210, ip, 120 h; 12.5 mg/kg/day i.p., once a day for 5 days; read-out: ILS (Increase in Life Span)
readout.type: ILS at 12.5 mg/kg

Record request: ILS at 12.5 mg/kg value, item COCC(C)N(C(=O)N(CCCl)N=O)C1O[C@H](CO)[C@H](O)[C@H](O)[C@H]1O (stereo partly shown)
158%

Record request: ILS at 12.5 mg/kg value, item COCC(C)N(C(=O)N(CCCl)N=O)C1OC[C@H](O)[C@H](O)[C@H]1O (stereo partly shown)
> 722%

Record request: ILS at 12.5 mg/kg value, item COCCCN(C(=O)N(CCCl)N=O)C1OC[C@H](O)[C@H](O)[C@H]1O (stereo partly shown)
> 324%

Record request: ILS at 12.5 mg/kg value, item COCCN(C(=O)N(CCCl)N=O)C1O[C@H](CO)[C@@H](O)[C@H]1O (stereo partly shown)
> 414%

Record request: ILS at 12.5 mg/kg value, item COCCCN(C(=O)N(CCCl)N=O)C1OC[C@@H](O)[C@@H](O)[C@@H]1O (stereo partly shown)
> 215%

Record request: ILS at 12.5 mg/kg value, item COCCN(C(=O)N(CCCl)N=O)C1OC[C@H](O)[C@H](O)[C@H]1O (stereo partly shown)
> 556%

Record request: ILS at 12.5 mg/kg value, item COC(C)CN(C(=O)N(CCCl)N=O)C1OC[C@H](O)[C@H](O)[C@H]1O (stereo partly shown)
> 529%

----------
Give Therapeutic index (MTD/MED) for every item shown.
# System: Ehrlich ascites carcinoma
# assay.overview: Preventive effect against the growth of Ehrlich ascites tumor (Method A)
# Format: in vivo, mice (female ICR)
# test.settings: MTD/MED
Reply: number alone, nothing else.

Record request: Therapeutic index (MTD/MED) value, item COCC(C)N(C(=O)N(CCCl)N=O)C1O[C@H](CO)[C@H](O)[C@H](O)[C@H]1O (stereo partly shown)
64

Record request: Therapeutic index (MTD/MED) value, item COC(C)CN(C(=O)N(CCCl)N=O)C1OC[C@H](O)[C@H](O)[C@H]1O (stereo partly shown)
128

Record request: Therapeutic index (MTD/MED) value, item COCCCN(C(=O)N(CCCl)N=O)C1O[C@H](CO)[C@@H](O)[C@H](O)[C@H]1O (stereo partly shown)
32

Record request: Therapeutic index (MTD/MED) value, item COCCN(C(=O)N(CCCl)N=O)C1OC[C@H](O)[C@H](O)[C@H]1O (stereo partly shown)
128

----------
# Tested on: Ehrlich ascites carcinoma
# assay.overview: Preventive effect against the growth of Ehrlich ascites tumor (Method A)
# Assay type: in vivo, mice (female ICR)
# test.settings: Mus musculus, Ehrlich, ip, 168 h; 3.12 mg/kg/day i.p., once a day for 5 days; read-out: Inhibition ratio
readout.type: inhibition in vivo at 3.12 mg/kg (%)
# value in %; strip the unit string

Record request: inhibition in vivo at 3.12 mg/kg value, item COC(C)CN(C(=O)N(CCCl)N=O)C1O[C@H](CO)[C@@H](O[C@H]2O[C@H](CO)[C@@H](O)[C@H](O)[C@H]2O)[C@H](O)[C@H]1O (some centres unmarked) [Compound 1]
100

Record request: inhibition in vivo at 3.12 mg/kg value, item COCC(C)N(C(=O)N(CCCl)N=O)C1OC[C@H](O)[C@H](O)[C@H]1O (some centres unmarked) [Compound 6]
100

Record request: inhibition in vivo at 3.12 mg/kg value, item COCCCN(C(=O)N(CCCl)N=O)C1O[C@H](CO)[C@@H](O)[C@H](O)[C@H]1O (some centres unmarked) [Compound 12]
100

Record request: inhibition in vivo at 3.12 mg/kg value, item COC(C)CN(C(=O)N(CCCl)N=O)C1OC[C@H](O)[C@H](O)[C@H]1O (some centres unmarked) [Compound 5]
100

Record request: inhibition in vivo at 3.12 mg/kg value, item COCCN(C(=O)N(CCCl)N=O)C1O[C@H](CO)[C@@H](O)[C@H](O)[C@@H]1O (some centres unmarked) [Compound 11]
64

Record request: inhibition in vivo at 3.12 mg/kg value, item COCC(C)N(C(=O)N(CCCl)N=O)C1O[C@H](CO)[C@@H](O[C@H]2O[C@H](CO)[C@@H](O)[C@H](O)[C@H]2O)[C@H](O)[C@H]1O (some centres unmarked) [Compound 2]
100

Record request: inhibition in vivo at 3.12 mg/kg value, item COCCCN(C(=O)N(CCCl)N=O)C1OC[C@H](O)[C@H](O)[C@H]1O (some centres unmarked) [Compound 4]
100

Record request: inhibition in vivo at 3.12 mg/kg value, item O=NN(CCCl)C(=O)N[C@@H]1O[C@H](CO)[C@@H](O)[C@H](O)[C@H]1O [GANU, reference compound]
100

Record request: inhibition in vivo at 3.12 mg/kg value, item COCCN(C(=O)N(CCCl)N=O)C1O[C@H](CO)[C@@H](O)[C@H]1O (some centres unmarked) [Compound 9]
100

Record request: inhibition in vivo at 3.12 mg/kg value, item O=NN(CCCl)C(=O)NC1CCCCC1 [CCNU, reference compound]
21.1

Record request: inhibition in vivo at 3.12 mg/kg value, item COCCN(C(=O)N(CCCl)N=O)C1OC[C@H](O)[C@H](O)[C@H]1O (some centres unmarked) [Compound 3]
100

----------
# Test system: Ehrlich ascites carcinoma
# assay.overview: Preventive effect against the growth of Ehrlich ascites tumor (Method A)
# Assay type: in vivo, mice (female ICR)
# test.settings: Mus musculus, Ehrlich, ip, 168 h; 0.78 mg/kg/day i.p., once a day for 5 days; read-out: Inhibition ratio
readout.type: inhibition in vivo at 0.78 mg/kg (%)
# value in %; strip the unit string

Record request: inhibition in vivo at 0.78 mg/kg value, item COCC(C)N(C(=O)N(CCCl)N=O)C1O[C@H](CO)[C@@H](O[C@H]2O[C@H](CO)[C@@H](O)[C@H](O)[C@H]2O)[C@H](O)[C@H]1O (stereo partly shown) [Compound 2]
-8.6

Record request: inhibition in vivo at 0.78 mg/kg value, item COCCN(C(=O)N(CCCl)N=O)C1O[C@H](CO)[C@@H](O)[C@H]1O (stereo partly shown) [Compound 9]
100

Record request: inhibition in vivo at 0.78 mg/kg value, item COCC(C)N(C(=O)N(CCCl)N=O)C1OC[C@H](O)[C@H](O)[C@H]1O (stereo partly shown) [Compound 6]
100

Record request: inhibition in vivo at 0.78 mg/kg value, item COCCCN(C(=O)N(CCCl)N=O)C1OC[C@@H](O)[C@@H](O)[C@@H]1O (stereo partly shown) [Compound 7]
100

Record request: inhibition in vivo at 0.78 mg/kg value, item COCCCN(C(=O)N(CCCl)N=O)C1O[C@H](CO)[C@@H](O)[C@H](O)[C@H]1O (stereo partly shown) [Compound 12]
34

Record request: inhibition in vivo at 0.78 mg/kg value, item COCCN(C(=O)N(CCCl)N=O)C1OC[C@H](O)[C@H](O)[C@H]1O (stereo partly shown) [Compound 3]
100

Record request: inhibition in vivo at 0.78 mg/kg value, item O=NN(CCCl)C(=O)N[C@@H]1O[C@H](CO)[C@@H](O)[C@H](O)[C@H]1O [GANU, reference compound]
100

----------
# assay.overview: Preventive effect against the growth of Ehrlich ascites tumor (Method A)
# Type: in vivo, mice (female ICR)
# test.settings: mouse, in vivo, ip; maximum dose with 100% inhibition of Ehrlich ascites tumor without causing death; unit from dose column; read-out: MTD (Maximum Tolerated Dose)
Short version: MTD at 168 h at least 100 mg/kg/day is MET, less is NOT MET.

// inclusive: MTD at 168 h at least 100 mg/kg/day? input: COCCN(C(=O)N(CCCl)N=O)C1O[C@H](CO)[C@@H](O)[C@H]1O (some centres unmarked)
NOT MET

// inclusive: MTD at 168 h at least 100 mg/kg/day? input: COCCN(C(=O)N(CCCl)N=O)C1O[C@H](CO)[C@@H](O)[C@H](O)[C@@H]1O (some centres unmarked)
MET

// inclusive: MTD at 168 h at least 100 mg/kg/day? input: COCCCN(C(=O)N(CCCl)N=O)C1OC[C@H](O)[C@H](O)[C@H]1O (some centres unmarked)
NOT MET

// inclusive: MTD at 168 h at least 100 mg/kg/day? input: O=NN(CCCl)C(=O)NC1CCCCC1 [CCNU, reference compound]
NOT MET

// inclusive: MTD at 168 h at least 100 mg/kg/day? input: COCC(C)N(C(=O)N(CCCl)N=O)C1OC[C@H](O)[C@H](O)[C@H]1O (some centres unmarked)
NOT MET

// inclusive: MTD at 168 h at least 100 mg/kg/day? input: COCCN(C(=O)N(CCCl)N=O)C1OC[C@H](O)[C@H](O)[C@H]1O (some centres unmarked)
NOT MET

// inclusive: MTD at 168 h at least 100 mg/kg/day? input: COC(C)CN(C(=O)N(CCCl)N=O)C1O[C@H](CO)[C@@H](O[C@H]2O[C@H](CO)[C@@H](O)[C@H](O)[C@H]2O)[C@H](O)[C@H]1O (some centres unmarked)
MET

// inclusive: MTD at 168 h at least 100 mg/kg/day? input: COCC(C)N(C(=O)N(CCCl)N=O)C1O[C@H](CO)[C@@H](O[C@H]2O[C@H](CO)[C@@H](O)[C@H](O)[C@H]2O)[C@H](O)[C@H]1O (some centres unmarked)
MET

// inclusive: MTD at 168 h at least 100 mg/kg/day? input: O=NN(CCCl)C(=O)N[C@@H]1O[C@H](CO)[C@@H](O)[C@H](O)[C@H]1O [GANU, reference compound]
NOT MET

// inclusive: MTD at 168 h at least 100 mg/kg/day? input: COCCN(C(=O)N(CCCl)N=O)C1OC[C@@H](O)[C@H](O)[C@H]1O (some centres unmarked)
NOT MET

// inclusive: MTD at 168 h at least 100 mg/kg/day? input: COC(C)CN(C(=O)N(CCCl)N=O)C1OC[C@H](O)[C@H](O)[C@H]1O (some centres unmarked)
NOT MET
